test system: Zika virus MR766; assay: Zika virus antiviral screen in HuH-7; type: cell-based; settings: Zika MR766, HuH-7; Tables 5-6; read-out: EC50 NR
MEASUREMENT_KIND: pEC50
pEC50 is defined as minus the log10 of a concentration measured in mol/L.

Ask | Bench note: what pEC50 did CC#CC1(O)CCC2C3CCC4=CC(=NNC(N)=S)CCC4=C3C(c3ccc4c(c3)OCO4)CC21C.CC#CC1(O)CCC2C3CCC4=CC(=O)CCC4=C3C(c3ccc4c(c3)OCO4)CC21C.CC(C)=O.CCO.O (stereo not shown) show?
Reply | 6.35

###

test system: OM-10.1 cells; assay: Toxicity in OM-10.1 (Cell Titer 96); settings: OM-10.1, Table 7
MEASUREMENT_KIND: CC50

Ask | Recorded CC50 of CC#CC1(O)CCC2C3CCC4=CC(=NNC(N)=S)CCC4=C3C(c3ccc4c(c3)OCO4)CC21C.CC#CC1(O)CCC2C3CCC4=CC(=O)CCC4=C3C(c3ccc4c(c3)OCO4)CC21C.CC(C)=O.CCO.O (stereo not shown) , please.
Reply | > 100 µM
